target: UniProtKB C3L5T6; test: biochemical; format: biochemical
Use Y when the recorded […]. anthracis is no lower than 7%; use N when it is lower.

In [3]: df
Out[3]:
                                smiles_data  assigned_class
0   Cc1cc(N/C=C2\N=C(c3ccc(Cl)cc3)OC2=O)no1               Y
1            O=S(=O)(NCc1cccs1)c1ccc(Br)cc1               N
2  O=C(O)/C=C/c1ccc(S(=O)(=O)NCc2ccc3c(c2)OCO3)cc1               N
3  O=[N+]([O-])c1cc(Cl)ccc1NCCCNS(=O)(=O)c1ccccc1               N
4     O=C(O)c1ccccc1S(=O)(=O)c1ccccc1C(=O)O               Y
5  O=C(O)c1ccc(OCOc2ccc(C(=O)O)c(C(=O)O)c2)cc1C(=O)O               Y
6          Nc1ccc(/C=C/c2cccc(C(=O)O)n2)cc1               Y
7               Cc1ccc(F)cc1NC(=O)CSCC(=O)O               Y

###

target: ecNadD (Escherichia coli (strain K12), UniProt P0A752); experiment: biochemical; type: biochemical
Measured […]. coli, listed per entry for reference.
Parameter Measured: […]. coli (%)

In [3]: df
Out[3]:
                                    molecule  parameter_measured  unit_of_measure  result_value
 0         COC(=O)CSc1nnc(-c2ccc(Cl)cc2Cl)o1           […]. coli                %             0
 1           O=C(O)CCC(=O)NNC(=O)c1cccc(O)c1           […]. coli                %            27
 2      Nc1nonc1C(=O)N/N=C/c1cc(Br)cc(Br)c1O           […]. coli                %            19
 3  N/C(=N\OCC(=O)Nc1ccc([NH2+][O-])cc1)c1nonc1N           […]. coli                %            14
 4           O=S(=O)(NCCc1ccccc1)c1ccc(Br)s1           […]. coli                %             0
 5          O=C(COc1ccc(Cl)cc1)N/N=C/c1cccs1           […]. coli                %            11
 6  NC(N)=NS(=O)(=O)c1ccc(NC(=O)c2cccc([N+](=O)[O-])c2)cc1           […]. coli                %             0
 7        CSc1ccc(CNc2ccc(S(N)(=O)=O)cc2)cc1           […]. coli                %             5
 8          O=C(O)c1cccc(COc2ccc(CO)cc2Cl)c1           […]. coli                %             3
 9          CCn1c(CNc2ccc(F)cc2)nnc1SCC(N)=O           […]. coli                %             0
10  O=C(O)c1ccc2[nH]c(CCc3nc4cc(C(=O)O)ccc4[nH]3)nc2c1           […]. coli                %             0
11            Cn1nnnc1SCC(=O)Nc1ccc(Br)cc1Cl           […]. coli                %             9
12  COC(=O)c1ccc(NC(=O)CNc2ccc(C(=O)O)cc2)cc1           […]. coli                %             0
13  CC(=NNC(=O)CCC(=O)Nc1ccc(Br)cc1)c1ccc2ccccc2c1           […]. coli                %             0
14              Brc1ccc2ncnc(NCc3cccnc3)c2c1           […]. coli                %             0
15       O=C1NC(=O)/C(=C\c2ccc(C(=O)O)cc2)N1           […]. coli                %            54
16          C=CCNC(=O)c1cc(-c2ccc(Br)cc2)on1           […]. coli                %             0
17  O=[N+]([O-])c1cc(Cl)ccc1NCCCNS(=O)(=O)c1ccccc1           […]. coli                %             4
18            O=C(Nc1ncnc2[nH]cnc12)c1ccccc1           […]. coli                %             8
19              O=C(Nc1ncccc1Cl)c1ccc(Br)cc1           […]. coli                %             6
20      COc1ccccc1OCc1nc(-c2ccc(Cl)cc2Cl)no1           […]. coli                %             0
21          C=CCSc1nnc(-c2cc(Br)ccc2N)c(O)n1           […]. coli                %             2
22         O=C(O)/C=C\C(=O)Nc1ccc(Br)c(Cl)c1           […]. coli                %             7
23  NS(=O)(=O)c1ccc(NC(=S)Nc2ccc(Cl)cc2F)cc1           […]. coli                %            11
24  CC(=O)O/C(=C\c1cn(C(C)=O)c2ccccc12)C(=O)O           […]. coli                %             0
25             O=C(N/N=C/c1ccccc1Cl)c1cccnc1           […]. coli                %             0
26  NS(=O)(=O)c1ccc2nc(NC(=O)CCc3ccccc3)sc2c1           […]. coli                %             6
27       O=C(CSc1ncnc2ccccc12)Nc1ccc2nsnc2c1           […]. coli                %             0
28  CCc1c(O)nc(SC2CC(=O)N(c3ccccc3)C2=O)nc1O (stereo not shown)           […]. coli                %            16
29  Cc1ccccc1N1CC(C(=O)O)CC1=O (stereo not shown)           […]. coli                %             2
30  CC(=O)Nc1ccc(S(=O)(=O)Nc2ccc(Cl)cc2Cl)cc1           […]. coli                %            47
31               NC(=S)NNC(=O)c1ccccc1C(=O)O           […]. coli                %             6
32  Nc1nc(-c2ccc(Cl)c([N+](=O)[O-])c2)n[nH]1           […]. coli                %             0
33  CC(c1ccccc1)c1nnc(N)s1 (stereo not shown)           […]. coli                %             0
34                N=C(N)NNC(=S)Nc1ccc(Cl)cc1           […]. coli                %            30
35           O=C(Nc1ccccc1C(=O)O)c1ccc(Br)o1           […]. coli                %            20
36         Cc1cc(Nc2cccc(C(=O)O)c2)n2ncnc2n1           […]. coli                %            30
37           Cn1c(SCC(N)=O)nnc1-c1ccc(Br)cc1           […]. coli                %             0
38  Cc1cc(OCC(=O)Nc2ccc(S(N)(=O)=O)cc2)ccc1Cl           […]. coli                %            10
39         O=C(O)c1ccc2nc(-c3ccc(O)cc3)sc2c1           […]. coli                %             0

###

molecular target: baNadD (Bacillus anthracis); test: biochemical; type: biochemical; conditions: read-out: INHIBITION (%) B. anthracis
Sequence (C3L5T6 whole entry, looked up): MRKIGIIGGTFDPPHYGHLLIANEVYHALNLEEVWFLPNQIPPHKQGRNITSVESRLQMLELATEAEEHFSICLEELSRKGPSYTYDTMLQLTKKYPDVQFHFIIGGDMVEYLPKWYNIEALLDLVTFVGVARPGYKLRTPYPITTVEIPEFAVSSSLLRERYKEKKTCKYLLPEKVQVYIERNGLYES
So basically every entry gets a class from its inhibition at 50 µM, ranges being 1 (below 20%), 2 (20% to below 50%), 3 (50% or more)

>>> print(df.to_string())
                                    molecule  assigned_class
 0  Nc1c(C(=O)Nc2ccc(Cl)cc2)sc2nc(-c3ccncc3)ccc12               1
 1  Nc1c(C(=O)Nc2ccc(Cl)cc2F)sc2nc(-c3ccc(F)cc3)ccc12               3
 2  Cc1ccc(/C=N/NC(=O)CCC(=O)Nc2ccc(C)cc2)cc1               3
 3    CC(=O)c1ccc(N/C=C2/C(=O)Nc3ccccc32)cc1               1
 4  Nc1c(C(=O)Nc2ccc(Cl)c(Cl)c2)sc2nc(-c3cccs3)ccc12               3
 5        Cc1ccc(N/C=C2\C(=O)Nc3ccccc32)cc1C               3
 6             O=C1Nc2ccccc2/C1=C/Nc1ccccc1F               2
 7      Cc1ccc(C)c(N/C=C2\C(=O)Nc3ccccc32)c1               2
 8  O=C(CCC(=O)Nc1cccc(Br)c1)N/N=C/c1c2ccccc2cc2ccccc12               3
 9         O=C1Nc2ccccc2/C1=C/Nc1ccc(Br)cc1F               3
10              O=C1Nc2ccccc2/C1=C/NC1CCCCC1               1
11          O=C1Nc2ccccc2/C1=C/Nc1ccc(Br)cc1               3
12     CN(C)c1ccc(N/C=C2\C(=O)Nc3ccccc32)cc1               2
13  Nc1c(C(=O)Nc2cc(Cl)cc(Cl)c2)sc2nc(-c3ccncc3)ccc12               1
14   Cc1cc(C)c(N/C=C2\C(=O)Nc3ccccc32)c(C)c1               2
15       Cc1ccc(N/C=C2\C(=O)Nc3ccccc32)cc1Cl               2
16           Cc1ccccc1N/C=C1\C(=O)Nc2ccccc21               2
17        CSc1cccc(N/C=C2\C(=O)Nc3ccccc32)c1               2
18  Nc1c(C(=O)Nc2ccc(F)c(F)c2)sc2nc(-c3ccncc3)ccc12               2
19         Cc1cccc(N/C=C2\C(=O)Nc3ccccc32)n1               1
20  Nc1c(C(=O)Nc2ccc(Cl)cc2Cl)sc2nc(-c3cccs3)ccc12               3
21  O=C(CCC(=O)Nc1ccc(Br)cc1)N/N=C/c1ccc(Br)cc1               3
22            O=C1Nc2ccccc2/C1=C/Nc1ccccc1Br               1
23  CC(/C=N/NC(=O)CCC(=O)Nc1ccc(Br)cc1)c1ccc2ccccc2c1 (centres unmarked)               3
24        O=C1Nc2ccccc2/C1=C/Nc1ccccc1C(=O)O               1
25        Cc1ccc(CN/C=C2\C(=O)Nc3ccccc32)cc1               1
26  O=C(CCC(=O)Nc1ccc(I)cc1)N/N=C/c1cccc(Br)c1               3
27             O=C1Nc2ccccc2/C1=C/NCc1ccccc1               1
28             O=C1Nc2ccccc2/C1=C/NCc1cccnc1               2
29  Nc1c(C(=O)Nc2cccc(Cl)c2Cl)sc2nc(-c3cccs3)ccc12               2
30  O=C(CCC(=O)Nc1cccc(Br)c1)N/N=C/c1ccc(I)cc1               2
